Cited source: paper PMC9482650

# targetOrTestSystem: TJP1_3, Q07157
# Sequence (Q07157 416-512): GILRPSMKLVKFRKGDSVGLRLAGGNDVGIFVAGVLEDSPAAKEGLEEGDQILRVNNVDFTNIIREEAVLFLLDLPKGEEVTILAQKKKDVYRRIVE
# assay: holdup assay
# Parameters: key: below the threshold = too weak to quantify, mostly under pKd 3.1 to 4
# details: plain residues with an end cap or a label only (N-terminal biotin on a linker: ahx)
quantityMeasured: pKd

Below: 9 binders and their reported pKd.
[
  {
    "binder": "ADENEQVSAV [RAPGEF6, Q8TEU7]",
    "pKd": "below the threshold"
  },
  {
    "binder": "PKMKLNETSF [SHKBP1, Q8TBC3]",
    "pKd": "below the threshold"
  },
  {
    "binder": "KDECVIATEV [DLL1, O00548]",
    "pKd": "below the threshold"
  },
  {
    "binder": "SKKNELFSNL [NHERF1, O14745]",
    "pKd": "below the threshold"
  },
  {
    "binder": "HSATSVHTSV [MTMR1, Q13613]",
    "pKd": "below the threshold"
  },
  {
    "binder": "SAPATLSSRA [PDLIM2, Q96JY6]",
    "pKd": "below the threshold"
  },
  {
    "binder": "AKPQPVDSWV [ARVCF, O00192]",
    "pKd": 3.62
  },
  {
    "binder": "VNENQKEYFF [CNTNAP4, Q9C0A0]",
    "pKd": "below the threshold"
  },
  {
    "binder": "YNSFLSVTTV [PDZRN3, Q9UPQ7]",
    "pKd": "below the threshold"
  }
]

Next binder, pKd to be filled in.
Give the measured pKd of KEYDDELTFF [USH1C, Q9Y6N9] .
below the threshold
